Documented pKi across a set of compounds
MEASUREMENT_TARGET: trypsin (Bos taurus, UniProt P00760)
Sequence (P00760 24-246): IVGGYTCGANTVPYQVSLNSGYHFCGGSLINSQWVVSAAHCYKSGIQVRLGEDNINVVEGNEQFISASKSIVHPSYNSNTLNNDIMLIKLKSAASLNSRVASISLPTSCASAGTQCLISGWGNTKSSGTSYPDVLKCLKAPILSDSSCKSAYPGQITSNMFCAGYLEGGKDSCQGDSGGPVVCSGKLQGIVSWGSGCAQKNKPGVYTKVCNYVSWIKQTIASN
METHOD_NOTES: inhibition of trypsin, dissociation constant Ki
Format: biochemical
Set-up: thrombin and the related enzymes trypsin, plasmin, factor Xa, factor XIIa
CONDITION_NOTES: Table 1; read-out: Ki, Trypsin
pKi: −log10 of the molar value.
MEASURE: pKi

COMPOUND	MEASUREMENT_TARGET	MEASURE	REPORTED_VALUE
CC(C)C(=O)N1CCN(C(=O)C(Cc2cccc(C(=N)N)c2)NS(=O)(=O)c2ccc3ccccc3c2)CC1 (stereo not drawn) [AMD 2-Naph COCH(Me)2]	trypsin (Bos taurus, UniProt P00760)	pKi	7.20
CC1(C)C2CCC1(CS(=O)(=O)N[C@@H](Cc1cccc(C(=N)N)c1)C(=O)N1CCN(S(C)(=O)=O)CC1)C(=O)C2 (single isomer, unassigned) [Compound 7]	trypsin (Bos taurus, UniProt P00760)	pKi	6.66
CS(=O)(=O)N1CCN(C(=O)[C@H](Cc2cccc(C(=N)N)c2)NS(=O)(=O)c2ccc3ccccc3c2)CC1.Cl [Compound 5, hydrochloride]	trypsin (Bos taurus, UniProt P00760)	pKi	7.17
